All figures here come from ChEMBL document CHEMBL3576833.

# measured-on: Hexokinase-4 (Homo sapiens) (UniProt P35557)
# Sequence (P35557 whole entry): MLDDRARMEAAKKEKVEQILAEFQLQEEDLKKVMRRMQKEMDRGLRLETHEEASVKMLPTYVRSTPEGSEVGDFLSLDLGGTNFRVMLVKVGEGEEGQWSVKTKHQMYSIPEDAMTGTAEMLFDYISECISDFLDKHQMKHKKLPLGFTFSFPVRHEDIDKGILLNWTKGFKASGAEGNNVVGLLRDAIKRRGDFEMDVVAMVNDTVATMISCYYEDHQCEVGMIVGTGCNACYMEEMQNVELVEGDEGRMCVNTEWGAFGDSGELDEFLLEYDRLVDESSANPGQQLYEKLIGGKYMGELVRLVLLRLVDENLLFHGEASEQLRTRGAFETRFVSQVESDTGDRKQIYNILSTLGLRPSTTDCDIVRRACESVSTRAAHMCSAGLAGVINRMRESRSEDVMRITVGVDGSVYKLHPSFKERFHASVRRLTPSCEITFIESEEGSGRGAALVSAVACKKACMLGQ
# assay-procedure: Activation of recombinant human pancreatic glucokinase using 10 mM glucose as substrate assessed as enzyme half maximal saturation concentration at 1 uM by G6PDH coupled assay
result-type: Activity (mM)

Here's what some known entries look like.
molecule: COC[C@H](C)Oc1cc(C#Cc2cccc(OCCN3CCCCC3)c2)cc(C(=O)Nc2ccn(C)n2)c1
measured-on: Hexokinase-4 (Homo sapiens) (UniProt P35557)
experimental-result: 2.25

molecule: COC[C@H](C)Oc1cc(C#Cc2cccc(OCCN3CCOCC3)c2)cc(C(=O)Nc2ccn(C)n2)c1
measured-on: Hexokinase-4 (Homo sapiens) (UniProt P35557)
experimental-result: 0.35

molecule: COCC#Cc1cc(O[C@@H](C)COC)cc(C(=O)Nc2ccn(C)n2)c1
measured-on: Hexokinase-4 (Homo sapiens) (UniProt P35557)
experimental-result: 4.04

molecule: COC[C@H](C)Oc1cc(C#Cc2cccc(NCCn3ccnc3C)c2)cc(C(=O)Nc2ccn(C)n2)c1
measured-on: Hexokinase-4 (Homo sapiens) (UniProt P35557)
experimental-result: 0.9

a = COC[C@H](C)Oc1cc(C#CCN(C)C)cc(C(=O)Nc2ccn(C)n2)c1
b = COC[C@H](C)Oc1cc(C#Cc2ccc3[nH]ccc3c2)cc(C(=O)Nc2ccn(C)n2)c1
In: Hi, I'm comparing a with b and wondering which one has the bigger number for Activity. Any idea? Please reply using the label of the selected record.
Out: a
(a: 5.51 mM, b: 0.46 mM)

====

# measured-on: Hexokinase-4 (Homo sapiens) (UniProt P35557)
# assay-procedure: Activation of recombinant human pancreatic glucokinase using 10 mM glucose as substrate assessed as enzyme half maximal saturation concentration at 1 uM by G6PDH coupled assay
result-type: Activity (mM)

structure: COC[C@H](C)Oc1cc(C#Cc2ccc3c(c2)OCO3)cc(C(=O)Nc2ccn(C)n2)c1
measured-on: Hexokinase-4 (Homo sapiens) (UniProt P35557)
Activity [mM]: 2.13

1 = COC[C@H](C)Oc1cc(C#Cc2cccc(OC(C)C)c2)cc(C(=O)Nc2ccn(C)n2)c1
2 = COCCNc1cccc(C#Cc2cc(O[C@@H](C)COC)cc(C(=O)Nc3ccn(C)n3)c2)c1
3 = COC[C@H](C)Oc1cc(C#CCNc2ncccn2)cc(C(=O)Nc2ccn(C)n2)c1
In: Please rank these compounds by Activity in descending order. Return the labels ranked in the requested order, please.
Out: 3, 1, 2
(3: 3.88 mM, 1: 1.84 mM, 2: 1.23 mM)

====

# measured-on: Hexokinase-4 (Rattus norvegicus) (UniProt P17712)
# Sequence (P17712 whole entry): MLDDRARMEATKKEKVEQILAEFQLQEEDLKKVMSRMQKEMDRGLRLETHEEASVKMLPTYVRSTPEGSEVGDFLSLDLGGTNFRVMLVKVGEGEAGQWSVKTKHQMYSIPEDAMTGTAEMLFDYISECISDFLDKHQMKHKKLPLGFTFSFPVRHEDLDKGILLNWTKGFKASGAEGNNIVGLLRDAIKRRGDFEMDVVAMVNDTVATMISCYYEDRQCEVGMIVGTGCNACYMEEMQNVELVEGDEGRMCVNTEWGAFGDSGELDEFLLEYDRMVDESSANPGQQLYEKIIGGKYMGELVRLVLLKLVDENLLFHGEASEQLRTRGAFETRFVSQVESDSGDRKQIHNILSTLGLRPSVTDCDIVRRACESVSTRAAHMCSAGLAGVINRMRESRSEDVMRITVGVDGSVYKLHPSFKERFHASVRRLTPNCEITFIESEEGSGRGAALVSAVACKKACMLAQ
# assay-procedure: Activation of glucokinase in rat primary hepatocytes assessed as increase in 5.6 mM 2-deoxy-D-[3H]-glucose uptake after 4 hrs by scintillation counting analysis relative to control
# Assay type: cell-based
# settings: Hepatocyte
result-type: fold change (FC)

structure: CCN(CC)c1cccc(C#Cc2cc(O[C@@H](C)COC)cc(C(=O)Nc3ccn(C)n3)c2)c1
measured-on: Hexokinase-4 (Rattus norvegicus) (UniProt P17712)
experimental-result: 1.91

structure: COC[C@H](C)Oc1cc(C#Cc2cccc(N)c2)cc(C(=O)Nc2ccn(C)n2)c1
measured-on: Hexokinase-4 (Rattus norvegicus) (UniProt P17712)
experimental-result: 2.16

structure: COC[C@H](C)Oc1cc(C#Cc2ccc(N)cc2)cc(C(=O)Nc2ccn(C)n2)c1
measured-on: Hexokinase-4 (Rattus norvegicus) (UniProt P17712)
experimental-result: 2.05

structure: COC[C@H](C)Oc1cc(C#Cc2cccc(OCC#N)c2)cc(C(=O)Nc2ccn(C)n2)c1
measured-on: Hexokinase-4 (Rattus norvegicus) (UniProt P17712)
experimental-result: 1.75

structure: COC[C@H](C)Oc1cc(C#Cc2cccc(N(C)C)c2)cc(C(=O)Nc2ccn(C)n2)c1
measured-on: Hexokinase-4 (Rattus norvegicus) (UniProt P17712)
experimental-result: 2.43

====

# measured-on: Hexokinase-4 (Rattus norvegicus)
# assay-procedure: Activation of glucokinase in rat primary hepatocytes assessed as increase in 5.6 mM 2-deoxy-D-[3H]-glucose uptake after 4 hrs by scintillation counting analysis relative to control
# Format: cell-based
# settings: Hepatocyte
result-type: fold change (FC)

Here's what some known entries look like.
molecule: COCCNc1cccc(C#Cc2cc(O[C@@H](C)COC)cc(C(=O)Nc3ccn(C)n3)c2)c1
experimental-result: 2.18

molecule: COC[C@H](C)Oc1cc(C#Cc2cccc(NCCN3CCCCC3)c2)cc(C(=O)Nc2ccn(C)n2)c1
experimental-result: 2.79

molecule: COC[C@H](C)Oc1cc(C#Cc2ccccc2OC)cc(C(=O)Nc2ccn(C)n2)c1
experimental-result: 2.64

molecule: COC[C@H](C)Oc1cc(C#Cc2ccc3c(c2)OCO3)cc(C(=O)Nc2ccn(C)n2)c1
experimental-result: 2.64

molecule: COC[C@H](C)Oc1cc(C#Cc2cccc(NCCN3CCCC3)c2)cc(C(=O)Nc2ccn(C)n2)c1
experimental-result: 2.83

molecule: COC[C@H](C)Oc1cc(C#CCOC2CCCCO2)cc(C(=O)Nc2ccn(C)n2)c1 (stereo partly drawn)
experimental-result: 2.5

molecule: COC[C@H](C)Oc1cc(C#CCNc2ncccn2)cc(C(=O)Nc2ccn(C)n2)c1
experimental-result: 2.37

molecule: COC[C@H](C)Oc1cc(C#Cc2cccc(OC(C)C)c2)cc(C(=O)Nc2ccn(C)n2)c1
experimental-result: 2.03

1 = COCC#Cc1cc(O[C@@H](C)COC)cc(C(=O)Nc2ccn(C)n2)c1
2 = COC[C@H](C)Oc1cc(C#Cc2cccc(NCCN3CCOCC3)c2)cc(C(=O)Nc2ccn(C)n2)c1
In: For the pair 1 and 2 , which entry has the numerically smaller recorded fold change (FC)? Please reply using the label of the selected record.
Out: 1
(1: 1.71, 2: 2.62)

1 = COC[C@H](C)Oc1cc(C#Cc2cccc(O)c2)cc(C(=O)Nc2ccn(C)n2)c1
2 = COC[C@H](C)Oc1cc(C#Cc2cccc(OCCN3CCCC3)c2)cc(C(=O)Nc2ccn(C)n2)c1
In: Hi, I'm comparing 1 with 2 and wondering which one has the bigger number for fold change (FC). Any idea? Please reply using the label of the selected record.
Out: 2
(2: 2.43, 1: 1.57)

====

# measured-on: Hexokinase-4 (Homo sapiens) (UniProt P35557)
# assay-procedure: Activation of recombinant human pancreatic glucokinase using 10 mM glucose as substrate assessed as enzyme half maximal saturation concentration at 1 uM by G6PDH coupled assay
result-type: Activity (mM)

Here's what some known entries look like.
compound: COC[C@H](C)Oc1cc(C#Cc2cccc(N)c2)cc(C(=O)Nc2ccn(C)n2)c1
reading-unit: mM
Activity: 0.84
--
compound: COC[C@H](C)Oc1cc(C#CCOC2CCCCO2)cc(C(=O)Nc2ccn(C)n2)c1 (stereo partly drawn)
reading-unit: mM
Activity: 0.55
--
compound: COC[C@H](C)Oc1cc(C#Cc2cccc(NCCN3CCOCC3)c2)cc(C(=O)Nc2ccn(C)n2)c1
reading-unit: mM
Activity: 0.55
--
compound: COC[C@H](C)Oc1cc(C#Cc2cccc(NCCN3CCCCC3)c2)cc(C(=O)Nc2ccn(C)n2)c1
reading-unit: mM
Activity: 0.61
--
compound: COC[C@H](C)Oc1cc(C#Cc2cccc(N(C)C)c2)cc(C(=O)Nc2ccn(C)n2)c1
reading-unit: mM
Activity: 0.76
--
compound: COC[C@H](C)Oc1cc(C#Cc2ccc(N)cc2)cc(C(=O)Nc2ccn(C)n2)c1
reading-unit: mM
Activity: 0.73
--
compound: COC[C@H](C)Oc1cc(C#Cc2ccccc2OC)cc(C(=O)Nc2ccn(C)n2)c1
reading-unit: mM
Activity: 0.73
--
compound: COC[C@H](C)Oc1cc(C#Cc2cccc(OCC#N)c2)cc(C(=O)Nc2ccn(C)n2)c1
reading-unit: mM
Activity: 0.95

I = COC[C@H](C)Oc1cc(C#Cc2cccc(OCCN3CCCC3)c2)cc(C(=O)Nc2ccn(C)n2)c1
II = COC[C@H](C)Oc1cc(C#Cc2cccc(NCCN3CCCC3)c2)cc(C(=O)Nc2ccn(C)n2)c1
III = COC[C@H](C)Oc1cc(C#Cc2cccc(O)c2)cc(C(=O)Nc2ccn(C)n2)c1
IV = COC[C@H](C)Oc1cc(C#Cc2cccc(NCCN(C)C)c2)cc(C(=O)Nc2ccn(C)n2)c1
V = CCN(CC)c1cccc(C#Cc2cc(O[C@@H](C)COC)cc(C(=O)Nc3ccn(C)n3)c2)c1
In: Please rank these compounds by Activity in descending order. Return the labels ranked in the requested order, please.
Out: V, III, I, II, IV

====

# measured-on: Hexokinase-4 (Rattus norvegicus) (UniProt P17712)
# assay-procedure: Activation of glucokinase in rat primary hepatocytes assessed as increase in 5.6 mM 2-deoxy-D-[3H]-glucose uptake after 4 hrs by scintillation counting analysis relative to control
# Assay type: cell-based
# settings: Hepatocyte
result-type: fold change (FC)

Here's what some known entries look like.
structure: COC[C@H](C)Oc1cc(C#Cc2cccc(OCCN3CCCCC3)c2)cc(C(=O)Nc2ccn(C)n2)c1
experimental-result: 2.36

structure: COC[C@H](C)Oc1cc(C#Cc2ccc3[nH]ccc3c2)cc(C(=O)Nc2ccn(C)n2)c1
experimental-result: 1.99

structure: COC[C@H](C)Oc1cc(C#Cc2cccc(OCCN3CCOCC3)c2)cc(C(=O)Nc2ccn(C)n2)c1
experimental-result: 1.89

structure: COC[C@H](C)Oc1cc(C#Cc2cccc(NCCN(C)C)c2)cc(C(=O)Nc2ccn(C)n2)c1
experimental-result: 2.03

I = COC[C@H](C)Oc1cc(C#Cc2cccc(NCCn3ccnc3C)c2)cc(C(=O)Nc2ccn(C)n2)c1
II = COC[C@H](C)Oc1cc(C#CCN(C)C)cc(C(=O)Nc2ccn(C)n2)c1
In: Hi, I'm comparing I with II and wondering which one has the bigger number for fold change (FC). Any idea? Please reply using the label of the selected record.
Out: I
